Data provenance is PubChem BioAssay AID602250.

- protocolNotes: calcium signal blockers in parental CHO-K1 cells – cell-based, Fluo-8 calcium fluorescence, full deck, 1536-well, counter-screen for M1 antagonist project, primary screen (AID 602250)
- appliedConditions: ATP-induced calcium, Fluo-8 fluorescence, at 3 µM
About 2,200 (0.61%) of roughly 360,000 compounds were called active.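 Rule for the calls: active = inhibition above a per-plate cutoff, the plate's mean sample inhibition plus 3 SD (cut at about 24% in these data); inactive = the rest.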 The sample as a whole holds a higher share of actives than the screen did.
Outcomes you can answer with include only these: active, inactive

Q: Query: recorded result category for "COc1cc(Nc2nc3ccc(Cl)cc3n3cnnc23)cc(OC)c1OC" in this test
A: active

Q: Would you mind telling me which call this test gave "CCNC(=O)c1cc2c(c(-c3cccc(-c4cncnc4)c3)n1)[C@H](CCO)N(C(C)=O)C2" ?
A: inactive

Q: Returns: the outcome recorded for COc1ccc(C(C#N)Nc2ccccc2C)cc1 (centres undefined) in this assay.
A: inactive

Q: What is the recorded call for this compound in the test? "Nc1ccc2nn(-c3ccc(Cl)cc3)nc2c1"
A: inactive

###

- protocolNotes: calcium signal blockers in parental CHO-K1 cells – cell-based, Fluo-8 calcium fluorescence, full deck, 1536-well, counter-screen for M1 antagonist project, primary screen (AID 602250)
- appliedConditions: ATP-induced calcium, Fluo-8 fluorescence, at 3 µM
The whole screen tested about 360,000 compounds, of which about 2,200 (0.61%) were called active.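 How the source made its calls: active means inhibition above a per-plate cutoff, the plate's mean sample inhibition plus 3 SD (cut at about 24% in these data); inactive means the rest.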 The sample as a whole holds a higher share of actives than the screen did.
Respond with a class label; see active, inactive

Q: Recorded test outcome, item "CCc1c(SCCC(=O)O)nc2ccccc2c1C"
A: inactive

Q: Fill in: this test's call for "Cc1noc(C)c1S(=O)(=O)Nc1cc(C(F)(F)F)ccc1N1CCOCC1" is ___
A: inactive

Q: How was CCCCn1nnnc1C(c1cccc(OC)c1OC)N1CCN(C/C=C/c2ccccc2)CC1 (centres undefined) classified in this test?
A: inactive

Q: So what was the verdict on "O=C(c1ccccc1F)N(Cc1ccccc1)Cc1ccccc1" in this test?
A: inactive

Q: Tell me the recorded outcome of this test for "Cc1cccc(S(=O)(=O)N(C)C[C@@H]2OCc3cnnn3CCCC(=O)N([C@H](C)CO)C[C@@H]2C)c1" .
A: inactive

Q: Would you mind telling me which call this test gave "Cc1ccc(OS(=O)(=O)c2ccc(-c3csc(C)n3)s2)c(C)c1" ?
A: inactive

Q: What did this assay record as the result for "Cc1oc2c(F)c(F)c(F)c(F)c2c1S(=O)(=O)Nc1cccc(C(F)(F)F)c1" ?
A: active

Q: Recorded test outcome, item "NC1=NC2(CCCCC2)N(c2ccc(F)cc2F)C(N)=N1"
A: inactive

Q: Could you kindly confirm the outcome this assay logged for "Cc1onc(-c2c(F)cccc2Cl)c1C(=O)N(C)CC(=O)Nc1cccc(F)c1" ?
A: inactive

Q: So what was the verdict on Cc1cccc(OCC(O)Cn2c(=N)n(CCN3CCOCC3)c3ccccc32)c1 (centres undefined) in this test?
A: inactive

Q: Called result for "CC(=O)c1c(C)[nH]c(C(=O)COC(=O)CCOc2ccc(C)cc2)c1C"
A: inactive

Q: Just curious, what result did CCC(=O)N1c2ccc(S(=O)(=O)NCc3ccco3)cc2CC1C (centres undefined) get here?
A: inactive

Q: Hi, do you know how COc1ccc(C(=O)C2CCCN(C(=O)c3cc(C)on3)C2)cc1F (centres undefined) came out in this test?
A: inactive

Q: Please indicate how the test categorized CCN1CCN(C2CCCCC2NS(=O)(=O)c2ccc(Cl)cc2)CC1 (centres undefined) .
A: inactive

Q: Kindly provide the recorded test outcome for the following compound: "COCCn1c(Cc2cccn2C)nnc1SCC(=O)Nc1nccs1"
A: inactive

Q: Dear all, I need the recorded test outcome for "COc1ccc(-c2nn(C)c(=O)c3ccccc23)cc1NC(=O)COc1ccccc1" , thank you.
A: active

Q: Can you look up the reported call for "Cc1ccc(N(CCC(=O)O)S(=O)(=O)c2cccc(C(F)(F)F)c2)cc1" for me?
A: inactive

Q: // outcome(item) with item = "CCOC(=O)c1c(N=CN(C)C)c(C#N)c2n1CCCC2"
A: inactive

Q: State the result this test recorded for CCC(=O)N1c2ccc(S(=O)(=O)CCC(=O)N3CCN(c4ccccc4)CC3)cc2CC1C (centres undefined) .
A: active

Q: Could you check what this test reported for O=C(NN1C(=O)C2CCCCC2C1=O)c1ccco1 (centres undefined) ?
A: inactive

Q: # lookup: test call for "CC(=O)Nc1cccc(NC(=O)c2c(-c3ccccc3)noc2C)c1"
A: active

Q: For this compound, state the assay outcome: "COc1ccc(O)c(C=Nc2cc(C)on2)c1"
A: inactive

Q: Please share the test call associated with "O=C(c1ccc(S(=O)(=O)N2CCOCC2)cc1)N1CCN(c2ccccc2)CC1" .
A: active

Q: What call does the record list for "O=C1NC[C@@H](Cc2ccc(O)cc2)N(CCc2cccc(F)c2)C1=O" ?
A: inactive

Q: Identify the outcome logged in this assay for the compound shown: "CCn1c(=S)[nH]c2cc(S(=O)(=O)N3CCOCC3)ccc21"
A: inactive

Q: Short answer needed: outcome of this test for "O=C(Nc1c(C(=O)N2CCCCC2)cnn1-c1ccccc1)c1ccco1" ?
A: inactive

Q: I would be grateful if you could indicate the recorded call for CCCN(CC1COc2ccccc2O1)C(=S)Nc1ccc(C)cc1 (centres undefined) .
A: inactive

Q: Assay result, entry "O=C(Nn1cc(C(=O)N2CCN(c3ccccc3F)CC2)c2ccccc2c1=O)c1cnccn1" — outcome?
A: inactive

Q: Record lookup: outcome of this test for COc1ccc(F)cc1C(=O)C1CCCN(C(=O)CCc2ccccn2)C1 (centres undefined) ?
A: inactive

Q: Hi, do you know how "N/C(=N\OC(=O)N1c2ccccc2Sc2ccccc21)c1ccc(Br)cc1" came out in this test?
A: inactive

Q: Which outcome did this test record for the compound "CC(=O)Nc1cccc(/C(C)=N/NC(=O)c2c(-c3ccccc3Cl)noc2C)c1" ?
A: inactive

Q: Test call, this compound: OC(CN=c1sc2ccccc2n1CC(O)COc1ccccc1)COc1ccccc1 (centres undefined)
A: active

Q: Could you kindly confirm the outcome this assay logged for CC(C)(C)n1nnnc1C(c1ccc2ncccc2c1)N1CCSCC1 (centres undefined) ?
A: inactive

Q: Hello, I am checking results. What call was entered for "O=C(Cc1ccc(S(=O)(=O)N2CCOCC2)s1)N1CCN(c2ccc(C(F)(F)F)cc2[N+](=O)[O-])CC1" ?
A: inactive

Q: What did this assay record as the result for "CCSC1=C(C#N)C(=O)n2c1cc1c2CCCC1" ?
A: inactive

Q: Could you please tell me the result logged for "CCSc1ncnc2c(C#N)c3n(c12)CCCCC3" in this assay?
A: active

Q: What did this assay record as the result for O=C(Nc1ccc2c(c1)OCCO2)C1c2ccccc2OCC(=O)N1Cc1ccccn1 (centres undefined) ?
A: inactive

Q: Any idea what this test logged for "COc1cc([N+](=O)[O-])ccc1NC(=O)COC(=O)CCOc1ccc(C)cc1" ?
A: inactive

Q: What is the recorded call for this compound in the test? "CN(c1ccccc1)S(=O)(=O)c1ccc(Cl)c(C(=O)OCC(N)=O)c1"
A: inactive
